substrate: C=CC1=C(C)/C(=C/c2[nH]c(/C=C3N=C(/C=C4\NC(=O)C(C)=C4C=C)C(C)=C\3CCC(=O)O)c(CCC(=O)O)c2C)NC1=O; experiment: steady-state kinetics, A450 bilirubin formation; assay type: biochemical, Rattus norvegicus; conditions: 100 μM NADPH, 100 mM Tris-HCl pH 8.75

| protein | Km (µM) |
| --- | --- |
| rat BVR (Rattus norvegicus; Y97F) (protein, C-terminal His tag (pET21a-rat bvr), E. coli BL21(DE3)) MDAEPKRKFGVVVVGVGRAGSVRLRDLKDPRSAAFLNLIGFVSRRELGSLDEVRQISLEDALRSQEIDVAYICSESSSHEDYIRQFLQAGKHVLVEFPMTLSFAAAQELWELAAQKGRVLHEEHVELLMEEFEFLRREVLGKELLKGSLRFTASPLEEERFGFPAFSGISRLTWLVSLFGELSLISATLEERKEDQYMKMTVQLETQNKGLLSWIEEKGPGLKRNRYVNFQFTSGSLEEVPSVGVNKNIFLKDQDIFVQKLLDQVSAEDLAAEKKRIMHCLGLASDIQKLCHQKK | 11.7 |
